Measurement target: EGFR (Homo sapiens)
Construct: EGFR cytoplasmic domain (EGFR-CD, amino acids 645–1186); His6 (N); made in house; host or cells: Sf-9 insect cells (baculovirus)
Sequence (P00533 669-1210): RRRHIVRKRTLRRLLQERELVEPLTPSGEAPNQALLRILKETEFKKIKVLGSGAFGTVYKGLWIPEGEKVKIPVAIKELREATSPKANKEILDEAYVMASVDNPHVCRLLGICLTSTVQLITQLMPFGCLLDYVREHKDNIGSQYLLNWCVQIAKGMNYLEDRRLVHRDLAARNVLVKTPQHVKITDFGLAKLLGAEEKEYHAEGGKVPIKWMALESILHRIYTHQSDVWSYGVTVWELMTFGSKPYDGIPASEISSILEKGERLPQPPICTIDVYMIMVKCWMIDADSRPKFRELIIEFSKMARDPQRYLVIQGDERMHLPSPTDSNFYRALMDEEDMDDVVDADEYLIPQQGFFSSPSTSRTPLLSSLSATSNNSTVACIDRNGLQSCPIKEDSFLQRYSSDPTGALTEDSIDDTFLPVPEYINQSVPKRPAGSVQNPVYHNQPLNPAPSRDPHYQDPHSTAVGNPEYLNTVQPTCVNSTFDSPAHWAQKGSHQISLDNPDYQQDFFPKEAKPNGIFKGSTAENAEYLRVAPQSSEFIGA
Assay comment: EGFR inhibitory assay
Assay type: biochemical
Measurement context: EGFR, conc 10 (log 1), unit not given
Quick list: %inh per entry.
Please state the value followed by its unit.

Note to self: %inh recorded for C/C(=N\Nc1ccc(S(N)(=O)=O)cc1)c1cnn(-c2cc(=O)[nH]c3ccc(Cl)cc23)c1C [Compound 4d] was 86.9%

The molecule listed as C/C(=N\Nc1ccc(S(N)(=O)=O)cc1)c1cnn(-c2cc(=O)[nH]c3ccc(Br)cc23)c1C [Compound 4e] has a reported %inh of 88.1%

response.value for C/C(=N\Nc1ccc(C(=O)O)cc1)c1cnn(-c2cc(=O)[nH]c3ccc(C)cc23)c1C [Compound 4g] (field: %inh) = 86.3%

Given item C/C(=N\Nc1ccc(C(=O)O)cc1)c1cnn(-c2cc(=O)[nH]c3ccccc23)c1C [Compound 4f] , the value recorded as its %inh is 80.6%
